test system: Enterobacter cloacae; assay: Antibacterial activity against drug-resistant Enterobacter cloacae EcDC64 isolate expressing AcrAB-TolC efflux pump by Etest; assay type: functional
measurementKind: MIC

compoundString | valueReported
CC[C@H]1OC(=O)[C@H](C)[C@@H](O[C@H]2C[C@@](C)(OC)[C@@H](O)[C@H](C)O2)[C@H](C)[C@@H](O[C@@H]2O[C@H](C)C[C@H](N(C)C)[C@H]2O)[C@](C)(O)C[C@@H](C)C(=O)[C@H](C)[C@@H](O)[C@]1(C)O | > 256 µg/mL
CCC[C@@H]1C[C@@H](C(=O)N[C@@H]([C@H]2O[C@H](SC)[C@H](O)[C@@H](O)[C@H]2O)[C@H](C)Cl)N(C)C1 | > 256 µg/mL
CC(=O)NC[C@H]1CN(c2ccc(N3CCOCC3)c(F)c2)C(=O)O1 | > 256 µg/mL
NC[C@H]1O[C@H](O[C@H]2[C@H](O)[C@@H](O[C@H]3O[C@H](CO)[C@@H](O)[C@H](N)[C@H]3O)[C@H](N)C[C@@H]2N)[C@H](N)C[C@@H]1O | 1.5 µg/mL

For this molecule ( NCC[C@H](O)C(=O)N[C@@H]1C[C@H](N)[C@@H](O[C@H]2O[C@H](CN)[C@@H](O)[C@H](O)[C@H]2O)[C@H](O)[C@H]1O[C@H]1O[C@H](CO)[C@@H](O)[C@H](N)[C@H]1O ), measured MIC is 2 µg/mL

For this molecule ( Cc1onc(-c2ccccc2)c1C(=O)N[C@@H]1C(=O)N2[C@@H]1SC(C)(C)[C@@H]2C(=O)O ), measured MIC is > 256 µg/mL

For this molecule ( CC(=O)OCC1=C(C(=O)O)N2C(=O)[C@@H](NC(=O)Cc3cccs3)[C@H]2SC1 ), measured MIC is > 256 µg/mL

For this molecule ( O=C(N[C@H](CO)[C@H](O)c1ccc([N+](=O)[O-])cc1)C(Cl)Cl ), measured MIC is 8 µg/mL

For this molecule ( CO/N=C(\C(=O)N[C@@H]1C(=O)N2C(C(=O)O)=C(COC(N)=O)CS[C@H]12)c1ccco1 ), measured MIC is > 256 µg/mL

For this molecule ( C[C@@H](O)[C@H]1C(=O)N2C(C(=O)O)=C(S[C@@H]3CN[C@H](C(=O)N(C)C)C3)[C@H](C)[C@H]12 ), measured MIC is > 32 µg/mL

For this molecule ( CN(C)[C@@H]1C(O)=C(C(N)=O)C(=O)[C@@]2(O)C(O)=C3C(=O)c4c(O)cccc4[C@@](C)(O)[C@H]3C[C@@H]12 ), measured MIC is > 256 µg/mL

For this molecule ( CO/N=C(\C(=O)N[C@@H]1C(=O)N2C(C(=O)O)=C(COC(C)=O)CS[C@H]12)c1csc(N)n1 ), measured MIC is > 256 µg/mL

###

Reported MIC values for the following compounds.
test system: Enterobacter cloacae; assay: Antibacterial activity against drug-resistant AcrAB-TolC efflux pump deficient Enterobacter cloacae EcdeltaacrA isolate expressing pBGS18 plasmid by Etest; assay type: functional

For this compound ( CCC[C@@H]1C[C@@H](C(=O)N[C@@H]([C@H]2O[C@H](SC)[C@H](O)[C@@H](O)[C@H]2O)[C@H](C)Cl)N(C)C1 ), measured MIC is > 256 µg/mL

For this compound ( CCN1CCN(C(=O)N[C@@H](C(=O)N[C@@H]2C(=O)N3[C@@H]2SC(C)(C)[C@@H]3C(=O)O)c2ccccc2)C(=O)C1=O ), measured MIC is > 256 µg/mL

###

test system: Enterobacter cloacae; assay: Antibacterial activity against drug-resistant AcrAB-TolC efflux pump deficient Enterobacter cloacae EcdeltaacrA isolate expressing pBGS18 plasmid by Etest; format: functional
Reported MIC values for the following molecules.

molecule | MIC
O=C(N[C@H](CO)[C@H](O)c1ccc([N+](=O)[O-])cc1)C(Cl)Cl [CHLORAMPHENICOL] | 8 mg/L

// returns MIC for C[C@@H](O)[C@H]1C(=O)N2C(C(=O)O)=C(SCCNC=N)C[C@H]12 [IMIPENEM ANHYDROUS] with Enterobacter cloacae; value = > 32 mg/L

// returns MIC for CO/N=C(\C(=O)N[C@@H]1C(=O)N2C(C(=O)O)=C(COC(C)=O)CS[C@H]12)c1csc(N)n1 [CEFOTAXIME] with Enterobacter cloacae; value = > 256 mg/L

// returns MIC for C[C@@H](O)[C@H]1C(=O)N2C(C(=O)O)=C(S[C@@H]3CN[C@H](C(=O)N(C)C)C3)[C@H](C)[C@H]12 [MEROPENEM] with Enterobacter cloacae; value = > 32 mg/L

// returns MIC for CO[C@@]1(NC(=O)Cc2cccs2)C(=O)N2C(C(=O)O)=C(COC(N)=O)CS[C@@H]21 [CEFOXITIN] with Enterobacter cloacae; value = > 256 mg/L
